Test system: rat aorta
Assay: Rat aorta angiogenesis assay (vessel outgrowth from aorta fragments in fibrin gel)
Format: cell-based
Details: Table 3; Assay 5; testing at 10 μg/mL
measured_attribute: % Inhibition (%)
Quick reminder: number only, in %, skip the unit.

Past entries and their recorded results:
1. CCCCCCC=CCCCOc1cccc(C(=O)N[C@H]2[C@H](O[C@H]3[C@H](O)[C@@H](NC(C)=O)[C@H](O[C@H]4[C@H](O)[C@@H](NC(C)=O)[C@H](O[C@H]5[C@H](O)[C@@H](NC(C)=O)[C@H](O[C@H]6[C@H](O)[C@@H](NC(C)=O)C(O)O[C@@H]6CO[C@@H]6O[C@@H](C)[C@@H](O)[C@@H](O)[C@@H]6O)O[C@@H]5CO)O[C@@H]4CO)O[C@@H]3CO)O[C@H](CO)[C@@H](O)[C@@H]2O)c1 (stereo partly drawn) ... 21
2. CC(=O)N[C@H]1[C@H](O[C@H]2[C@H](O)[C@@H](NC(C)=O)[C@H](O[C@H]3[C@H](O)[C@@H](NC(C)=O)C(O)O[C@@H]3COS(=O)(=O)O)O[C@@H]2CO)O[C@H](CO)[C@@H](O[C@@H]2O[C@H](CO)[C@@H](O)[C@H](O)[C@H]2N)[C@@H]1O (stereo partly drawn) ... 33

Query molecule follows.
// % Inhibition lookup, key: CC(=O)N[C@H]1[C@H](O[C@H]2[C@H](O)[C@@H](NC(C)=O)[C@H](O[C@H]3[C@H](O)[C@@H](NC(C)=O)C(O)O[C@@H]3CO)O[C@@H]2CO)O[C@H](CO)[C@@H](O[C@@H]2O[C@H](CO)[C@@H](O)[C@H](O)[C@H]2N)[C@@H]1O (stereo partly drawn)
24
